Molecular target: Bile acid receptor (Homo sapiens, UniProt Q96RI1)
Sequence (Q96RI1 whole entry): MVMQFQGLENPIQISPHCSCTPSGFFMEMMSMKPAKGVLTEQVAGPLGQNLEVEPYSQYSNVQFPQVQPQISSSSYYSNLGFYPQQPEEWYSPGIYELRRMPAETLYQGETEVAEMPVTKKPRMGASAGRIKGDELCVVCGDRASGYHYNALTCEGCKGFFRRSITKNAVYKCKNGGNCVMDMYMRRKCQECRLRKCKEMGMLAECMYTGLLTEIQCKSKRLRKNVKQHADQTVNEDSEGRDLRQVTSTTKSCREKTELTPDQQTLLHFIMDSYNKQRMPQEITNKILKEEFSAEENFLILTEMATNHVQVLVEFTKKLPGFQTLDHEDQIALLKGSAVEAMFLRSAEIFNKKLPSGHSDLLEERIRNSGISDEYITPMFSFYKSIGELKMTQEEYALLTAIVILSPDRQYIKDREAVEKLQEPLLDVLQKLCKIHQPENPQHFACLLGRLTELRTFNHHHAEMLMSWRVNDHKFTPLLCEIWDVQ
Experiment: Cotransfection Assay
Conditions: pH 7.2; 37 °C
pEC50: −log10 of the molar value.
READOUT TYPE: pEC50

For orientation, consider the following solved cases.
- SMI: "O=C(O)c1cccc(/C=C/c2ccc(OCc3c(-c4c(Cl)cccc4Cl)noc3-c3ccccc3)cc2Cl)c1"
  TARGET OR TEST SYSTEM: "Bile acid receptor (Homo sapiens, UniProt Q96RI1)"
  pEC50: 4.80
- SMI: "O=C(O)c1cccc(/C=C/c2ccc(OCc3c(-c4c(Cl)cccc4Cl)noc3-c3ccc(-c4ccccc4)cc3)cc2Cl)c1"
  TARGET OR TEST SYSTEM: "Bile acid receptor (Homo sapiens, UniProt Q96RI1)"
  pEC50: 4.47
- SMI: "O=C(O)c1cccc(NC(=O)c2ccc(OCc3c(-c4c(Cl)cccc4Cl)noc3-c3ccc(-c4ccccc4)cc3)cc2Cl)c1"
  TARGET OR TEST SYSTEM: "Bile acid receptor (Homo sapiens, UniProt Q96RI1)"
  pEC50: 5.43

I: O=C(O)c1cccc(NC(=O)c2ccc(OCc3c(-c4c(Cl)cccc4Cl)noc3-c3ccc4ccccc4c3)cc2Cl)c1
II: O=C(O)c1cccc(/C=C/c2ccc(OCc3c(-c4c(Cl)cccc4Cl)noc3-c3ccc4ccccc4c3)cc2Cl)c1
Kindly identify the item with the lower pEC50 figure among these two: I and II When you have decided, please share the label of that item.
II
(II: 4.65, I: 5.40)

meta.source: BindingDB's records for doi:10.1016/j.bmc.2007.01.046
